- TGT: cat T1R1/T1R3 receptor (Felis catus)
- Sequence (A0ABI7Z2I4 171-420): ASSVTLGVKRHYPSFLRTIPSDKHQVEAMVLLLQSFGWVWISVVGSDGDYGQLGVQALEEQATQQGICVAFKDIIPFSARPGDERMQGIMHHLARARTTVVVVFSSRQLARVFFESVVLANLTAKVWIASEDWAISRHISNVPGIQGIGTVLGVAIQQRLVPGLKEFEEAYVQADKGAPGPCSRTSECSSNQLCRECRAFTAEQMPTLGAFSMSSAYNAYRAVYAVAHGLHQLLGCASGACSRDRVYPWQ
- Sequence (Q49KI5 with tags, fused parts or gaps E206Q/N523D/F654L partner): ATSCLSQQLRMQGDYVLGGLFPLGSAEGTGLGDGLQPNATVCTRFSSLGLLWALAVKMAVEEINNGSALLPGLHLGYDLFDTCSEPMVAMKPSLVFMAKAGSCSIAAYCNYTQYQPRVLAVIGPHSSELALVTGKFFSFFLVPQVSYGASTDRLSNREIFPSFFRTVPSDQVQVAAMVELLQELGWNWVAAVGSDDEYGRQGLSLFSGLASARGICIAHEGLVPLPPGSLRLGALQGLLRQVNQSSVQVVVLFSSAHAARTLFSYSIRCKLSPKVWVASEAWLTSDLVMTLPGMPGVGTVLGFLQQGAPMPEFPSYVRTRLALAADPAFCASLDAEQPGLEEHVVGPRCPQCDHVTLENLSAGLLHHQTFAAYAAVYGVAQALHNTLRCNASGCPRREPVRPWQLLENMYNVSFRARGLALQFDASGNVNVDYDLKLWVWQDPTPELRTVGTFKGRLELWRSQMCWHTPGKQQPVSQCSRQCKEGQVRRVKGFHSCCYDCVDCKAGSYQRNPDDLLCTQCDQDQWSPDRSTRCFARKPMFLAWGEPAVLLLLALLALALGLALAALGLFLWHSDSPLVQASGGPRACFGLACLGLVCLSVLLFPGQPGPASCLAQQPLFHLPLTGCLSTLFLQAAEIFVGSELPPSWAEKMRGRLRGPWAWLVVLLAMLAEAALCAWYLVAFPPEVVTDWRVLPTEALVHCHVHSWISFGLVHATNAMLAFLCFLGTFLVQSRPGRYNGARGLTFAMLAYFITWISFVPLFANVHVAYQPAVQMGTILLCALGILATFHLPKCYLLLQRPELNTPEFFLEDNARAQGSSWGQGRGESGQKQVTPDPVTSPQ
- ASSAY SUMMARY: cell-based
- CONDITION SUMMARY: in the presence of alanine
ATTRIBUTE MEASURED: function as activators of T1R1/T1R3 (in words)

Recorded results for 5 molecules are shown here.
Nc1nc2c(ncn2[C@@H]2O[C@H](COP(=O)(O)O)[C@@H](O)[C@H]2O)c(=S)[nH]1 [6-thioguanosine-5′-O-monophosphate] ... activators of T1R1/T1R3
CNc1ccccc1C(=O)OC1C[C@H](n2cnc3c(=O)[nH]c(N)nc32)O[C@@H]1COP(=O)(O)O (stereo partly shown) ... activators of T1R1/T1R3
Nc1nc2c(ncn2[C@@H]2O[C@H](COP(O)(O)=S)[C@@H](O)[C@H]2O)c(=O)[nH]1 [Guanosine-5′-monophosphorothioate] ... activators of T1R1/T1R3
Nc1nc2c(ncn2C2CC(OP(=O)(O)O)C(COP(=O)(O)O)O2)c(=O)[nH]1 (stereo not shown) [2′-Deoxyguanosine-3′,5′-O-bisphosphate] ... activators of T1R1/T1R3
Nc1nc2c(ncn2[C@H]2C[C@H](O)[C@@H](COP(O)(O)=S)O2)c(=O)[nH]1 ... activators of T1R1/T1R3

QUERY: For Nc1nc2c(ncn2C2CC(O)C(COP(O)(O)=S)O2)c(=O)[nH]1 (stereo not shown) , what is its reported function as activators of T1R1/T1R3 (in words)?
RESULT: activators of T1R1/T1R3

====

- TGT: T1R1/T1R3 receptor (Felis catus, UniProt E3UMS2)
- ASSAY SUMMARY: cell-based
- Type: cell-based
- CONDITION SUMMARY: read-out: EC50 + Alanine
ATTRIBUTE MEASURED: EC50

CCCC(C)NC(=O)c1ccc(OC)c(C)c1 (stereo not drawn) ... 200 µM
CCC(CC)NC(=O)/C=C/c1ccc(OC)cc1 ... 590 µM

QUERY: For CC1CCCC(NC(=O)c2ccc3c(c2)OCO3)C1C (stereo not drawn) , what is its reported EC50?
RESULT: > 3000 µM

====

- TGT: cat T1R1/T1R3 receptor (Felis catus)
- ASSAY SUMMARY: cell-based
- From the text: HEK293 cells that stably express T1R3 and inducibly express T1R1 were exposed to nucleotide derivatives alone or in combination with one or more amino acids and/or one or more nucleotides to activate the umami receptor. Activation of the T1R1/T1R3 receptor was detected by a change in intracellular calcium levels using a calcium sensitive fluorescent dye and/or a luminescent reporter system. Cells that express T1R3 but not T1R1 were used as a control. […]
Where a name gives a salt, the structure may show the parent alone.
ATTRIBUTE MEASURED: Max resp. (ΔF/F)

Recorded results for 2 compounds are shown here.
O=P(O)(O)OCC1OC(n2cnc3c(Cl)ncnc32)C(O)C1O (centres unmarked) ... 1.5325 ΔF/F
O=c1nc[nH]c2c1ncn2C1O[C@H](COP(=O)(O)OP(=O)(O)OP(=O)(O)O)[C@@H](O)[C@H]1O (some centres unmarked) [trisodium salt] ... 0.3 ΔF/F

QUERY: For Nc1nc2c(ncn2[C@@H]2O[C@H](COP(=O)(O)OP(=O)(O)OP(=O)(O)O)[C@@H](O)[C@H]2O)c(=O)[nH]1 [Guanosine 5′-triphosphate] , what is its reported Max resp. (ΔF/F)?
RESULT: 1.8075 ΔF/F

QUERY: For Nc1ncnc2c1nc(Cl)n2[C@@H]1O[C@H](COP(=O)(O)O)C(O)C1O (some centres unmarked) [8-Chloroadenosine-5′-O-monophosphate] , what is its reported Max resp. (ΔF/F)?
RESULT: 0.79 ΔF/F

QUERY: For "CNc1ncnc2c1ncn2[C@H]1C[C@H](OP(=O)(O)O)[C@@H](COP(=O)(O)O)O1" , what is its reported Max resp. (ΔF/F)?
RESULT: 1.8150 ΔF/F
